experiment: Tmax in NOD-scid IL-2Rgamma-null mouse model engrafted with Plasmodium falciparum 3D7 infected human erythrocytes at 25 mg/kg administered via oral gavage measured over 23 hrs post first dose by LC-MS/MS method; type: ADME, organism-based; conditions: in vivo
Give measured Tmax for each item. Keep answers brief.

-- ask // returns reported Tmax for input `FC1(F)CCC(c2nc3cnc(Nc4ccc(C(F)(F)F)cn4)cc3[nH]2)CC1`
-- reply 0.5 to 23 h

-- ask Next up: `Fc1ccc(Nc2cc3[nH]c(-c4ccc(F)c(C(F)(F)F)c4)nc3cn2)nc1`
-- reply 4 h

----------
Give measured solubility kinetic at 20 h for each item. Keep answers brief.
test: Kinetic solubility of the compound in HCl at pH 2 after 20 hrs by shake flask method; assay type: physicochemical; details: read-out: Kinetic_solubility
Express it in µM; write the number only.

-- ask // returns reported solubility kinetic at 20 h for input `COc1cccnc1Nc1cc2[nH]c(-c3cccc(C(F)(F)F)c3)nc2cn1`
-- reply 116

-- ask Next up: `COC(=O)c1ccc(Nc2cc3[nH]c(-c4ccc(C(F)(F)F)nc4)nc3cn2)nc1`
-- reply 182

-- ask Next up: `FC(F)(F)c1cccc(-c2nc3cnc(Nc4cnccn4)cc3[nH]2)c1`
-- reply 155

-- ask Next up: `Fc1ccc(-c2nc3cnc(Nc4ccccn4)cc3[nH]2)cc1C(F)(F)F`
-- reply 7

-- ask Next up: `FC(F)(F)c1cccc(-c2nc3cnc(Nc4ccncn4)cc3[nH]2)c1`
-- reply 200

-- ask Next up: `FC(F)(F)c1cccc(-c2nc3cnc(Nc4cccnn4)cc3[nH]2)c1`
-- reply 161

-- ask Next up: `FC(F)(F)c1ccc(Nc2cc3[nH]c([C@H]4CC[C@H](C(F)(F)F)CC4)nc3cn2)nc1`
-- reply 200
